B1: LINE1-full (parent)
chain: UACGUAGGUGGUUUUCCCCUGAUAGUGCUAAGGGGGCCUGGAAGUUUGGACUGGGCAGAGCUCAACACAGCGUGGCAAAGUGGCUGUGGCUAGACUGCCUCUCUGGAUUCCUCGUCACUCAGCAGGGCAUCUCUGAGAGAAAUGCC

Variants of: B1
measurement.description: self-cleavage, relative activity (ratio to wild type); higher = more cleavage; in vitro, sequencing; the parent is a self-cleaving ribozyme

variant.descriptor	self-cleavage
C18U A65G	0.07
A64G A78U	0.23
U13A U46C	0.77
G70U U119C	0.07
G44U A142G	1.68
G34A A42G	0.35
A30U U47G	0.8
A78U A117C	2.72
U13A G54U	0.51
A59G A78G	0.06
U5C U46C	0.99
A24G G32A	1.13
U47A G72A	0.95
G74A G86A	0
U46C U52C	1.26
C18U A79G	1
A78G U100C	2.09
C120U A121G	0
A24C A79U	2.24
U23A U108A	1.44
C95U A124U	0.2
G27U U52C	0.36
U15C G53A	1.34
U134C U143C	1.21
C3U A65G	0.17
C18A A42G	1.45
A57G U119A	0.85
U20C G89A	0.09
A64G A92G	0.14
G89U A117G	0
G82A A142G	2.1
U13C U29C	1.35
A22U A107U	1.96
C37G U112C	0.28
U73C G126A	2.44
C3U A42G	1.22
U15G U108C	1.06
G4U A136G	1.91
U130C A136G	1.66
U26A G35U	1.14
U1A A79G	1.31
G34U A129G	1.98
C19U U73A	1.15
U20G A69G	1.05
